- System: T cell lines isolated from small intestinal biopsies of 22 adult celiac disease patients
- Test details: T cell lines of adult patients tested against the novel gluten peptides from children
- Format: cell-based, human
- Test conditions: T cell lines of 22 adult celiac disease patients
Property: reactivity of adult T cell lines against the peptide

Sequence text | Result
QPQPFPQQSEQSQQPFQPQPF [Glu-21, novel T cell stimulatory gluten peptide] | not against
QQPPFSQQQQQPLPQ [Glt-17, novel T cell stimulatory glutenin peptide] | not against
QQXSQPQXPQQQQXPQQPQQF [Glu-5, novel T cell stimulatory gluten peptide; X is isoleucine or leucine] | reactivity was observed
PQPQLPYPQPQLPY [Glia-α2, reference compound] | reactivity was observed
VQGQGIIQPQQPAQL [Glia-γ30, novel T cell stimulatory γ-gliadin peptide] | reactivity was observed
QQQQPPFSQQQQSPFSQQQQ [Glt-156, novel T cell stimulatory glutenin peptide] | not against
